Biological target: pro-protein convertase of the subtype nine binding to recombinant LDLR-AB domain (Homo sapiens)
Sequence (Q8NBP7 153-692): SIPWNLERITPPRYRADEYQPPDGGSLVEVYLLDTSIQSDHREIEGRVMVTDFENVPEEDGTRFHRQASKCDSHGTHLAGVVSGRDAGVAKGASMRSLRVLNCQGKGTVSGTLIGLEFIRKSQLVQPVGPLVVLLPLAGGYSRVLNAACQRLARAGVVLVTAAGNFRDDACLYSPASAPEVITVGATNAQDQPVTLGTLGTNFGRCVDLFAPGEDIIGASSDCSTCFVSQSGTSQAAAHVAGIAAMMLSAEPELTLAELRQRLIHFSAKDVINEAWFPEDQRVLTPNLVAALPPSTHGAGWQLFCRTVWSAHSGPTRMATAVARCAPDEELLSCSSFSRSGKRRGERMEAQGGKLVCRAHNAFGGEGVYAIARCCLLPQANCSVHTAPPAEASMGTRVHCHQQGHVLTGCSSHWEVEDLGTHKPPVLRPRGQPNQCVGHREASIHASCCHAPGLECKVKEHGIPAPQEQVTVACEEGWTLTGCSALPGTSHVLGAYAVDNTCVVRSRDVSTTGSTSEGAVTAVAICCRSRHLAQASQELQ
Sequence (Q8NBP7 31-152 partner limits assumed): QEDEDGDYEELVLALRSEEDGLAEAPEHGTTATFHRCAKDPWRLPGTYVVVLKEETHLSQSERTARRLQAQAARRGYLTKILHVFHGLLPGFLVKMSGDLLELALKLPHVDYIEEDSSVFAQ
Experiment: in vitro quantitative solid phase binding assay (ELISA) of the subtype nine pro-protein convertase to immobilized LDLR
Details: Concentration 100 μM
Experimental: The in vitro binding assay described hereinafter is a quantitative solid phase binding assay for determining the efficacy of the compounds. […] The amount of bound gene is measured by binding it with biotinylated anti-His-tag monoclonal antibody, followed by binding with horseradish peroxidase conjugated streptavidin substrate. The color was quantified by ELISA reader at […] which reflects the relative amount of “the gene” that binds to LDLR in presence and absence of the inhibitor. […]
Provide the recorded inhibition at 100 µM for the entries that follow.
Record the value in %, omitting the unit from your answer.

Form field: reported inhibition at 100 µM of O=C(COc1ccc(C(CN2CCSCC2)=NOCc2ccc(C(F)(F)F)cc2)cc1)NCC1CCOCC1
39

Requested field: inhibition at 100 µM. Item: CCC(=NOCc1ccc(C(F)(F)F)cc1)c1ccc(OCC(=O)NCC2CCOCC2)nc1
46

State the recorded inhibition at 100 µM for this entry: CC(=NOCc1ccc(C#N)cc1)c1ccc(OCC(=O)NCC2CCOCC2)nc1
15

Request the reported inhibition at 100 µM associated with O=C(COc1ccc(C(CN2CCOCC2)=NOCc2ccc(C(F)(F)F)cc2)cc1)NCC1CCOCC1
41

inhibition at 100 µM lookup needed for CC(=NOCc1ccc(C(F)(F)F)cc1)c1ccc(NCC(=O)NCC2CCOCC2)cc1 , thanks.
57

Recorded inhibition at 100 µM of CCC(=NOCc1ccccc1)c1ccc(OCC(=O)NCC2CCOCC2)nc1 , please.
52

// query inhibition at 100 µM value for entry Cc1cc(C(Cc2ccccc2)=NOCc2ccc(C(F)(F)F)cc2)ccc1OCC(=O)NCC1CCOCC1
51

So what's the measured inhibition at 100 µM for this one? CCC(=NOCc1ccc(C#N)cc1)c1ccc(OCC(=O)NCC2CCOCC2)nc1
23

For the compound CC(=NOCc1ccc(C(F)(F)F)cc1)c1ccc(OCC(=O)NCC2CCOCC2)cc1 , what inhibition at 100 µM is on record?
63

Would you kindly share the measured inhibition at 100 µM for CC(=NOCc1ccc(C(F)(F)F)cc1)c1ccc(OCC(=O)NCC2CCOCC2)nc1 ?
54

Name the recorded inhibition at 100 µM for Cc1cc(C(Cc2ccccc2)=NOCc2ccc(OC(F)(F)F)cc2)ccc1OCC(=O)NCC1CCOCC1 .
38

Reported inhibition at 100 µM, compound Cc1cc(C(Cc2ccsc2)=NOCc2ccc(C(F)(F)F)cc2)ccc1OCC(=O)NCC1CCOCC1 : ____
61
